- Test system: HIV-1JR-FL envelope-mediated membrane fusion (HeLa-EnvJRFL and CEM NKR-CCR5 cells)
- Assay Summary: cell-based
- Stated Conditions: 1st inhibitor alone (Table 13)
pIC50: −log10 of the molar value.
Readout Type: pIC50

1. COC[C@@H](c1ccc(C(F)(F)F)cc1)N1CCN(C2(C)CCN(C(=O)c3c(C)ncnc3C)CC2)C[C@@H]1C [SCH-D]: 8.49
